system: E. coli ATCC 25922; assay: microbe, parasite or virus in culture; conditions: Escherichia coli, ATCC25922, Nunc U TC plate; MHB +0.002% T80; n = 2
// reported MIC for each item listed

Compound | Endpoint unit | Value qualifier | MIC
O=C(O)c1cn(C2CC2)c2cc(N3CCNCC3)c(F)cc2c1=O [Ciprofloxacin, ciprofloxacin] | µg/mL | ≤ | 0.03
CC1(C)S[C@@H]2[C@H](NC(=O)Cc3ccccc3)C(=O)N2[C@H]1C(=O)O [Penicillin G, penicillin G] | µg/mL | = | 64
Cc1onc(-c2ccccc2)c1C(=O)N[C@@H]1C(=O)N2[C@@H]1SC(C)(C)[C@@H]2C(=O)O [Oxacillin, oxacillin] | µg/mL | > | 64
CO[C@H]1/C=C/O[C@@]2(C)Oc3c(C)c(O)c4c(O)c(c(/C=N/N5CCN(C)CC5)c(O)c4c3C2=O)NC(=O)/C(C)=C\C=C\[C@H](C)[C@H](O)[C@@H](C)[C@@H](O)[C@@H](C)[C@H](OC(C)=O)[C@@H]1C [Rifampin, rifampin] | µg/mL | = | 8
